We begin with a simple list: items and their reported pIC50.
Molecular target: human SERT (Homo sapiens)
Construct: expressed in transfected cells
Experiment: Uptake inhibition assay, SERT
Format: cell-based
Conditions: HEK293 cells stably expressing SERT, [3H]5-HT
By convention, pIC50 is the negative base-10 log of a molar concentration.

// molecule CNC(C)Cc1ccc2c(c1)OCS2 (centres unmarked) , assay human SERT (Homo sapiens), pIC50 value: 5.35

Now for a further molecule.
// molecule CC(N)Cc1ccc2c(c1)OCS2 (centres unmarked) [RT054, Benzoxathiol-6-yl-propan-2-amine, reference compound] , assay human SERT (Homo sapiens), pIC50 value: 5.44

###

Molecular target: human NET (Homo sapiens, UniProt P23975)
Construct: expressed in transfected cells
Sequence (P23975 whole entry): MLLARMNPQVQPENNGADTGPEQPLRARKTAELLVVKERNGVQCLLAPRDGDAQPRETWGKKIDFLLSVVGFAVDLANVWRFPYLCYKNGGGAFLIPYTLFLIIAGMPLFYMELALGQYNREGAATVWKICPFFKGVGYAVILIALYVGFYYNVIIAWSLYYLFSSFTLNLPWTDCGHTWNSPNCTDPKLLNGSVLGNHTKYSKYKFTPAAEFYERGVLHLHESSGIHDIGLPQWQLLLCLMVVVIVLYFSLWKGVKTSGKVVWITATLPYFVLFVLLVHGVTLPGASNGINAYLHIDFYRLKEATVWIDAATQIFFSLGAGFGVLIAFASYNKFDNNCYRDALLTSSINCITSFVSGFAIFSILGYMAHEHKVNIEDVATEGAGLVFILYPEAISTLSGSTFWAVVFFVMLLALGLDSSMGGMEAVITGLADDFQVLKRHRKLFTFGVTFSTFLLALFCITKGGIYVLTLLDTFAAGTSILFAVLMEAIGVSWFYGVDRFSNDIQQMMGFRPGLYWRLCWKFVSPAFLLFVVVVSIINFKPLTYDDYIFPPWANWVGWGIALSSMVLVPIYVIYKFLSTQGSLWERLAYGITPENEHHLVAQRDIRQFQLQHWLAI
Experiment: Uptake inhibition assay, NET
Type: cell-based
Conditions: HCl-treated (0.5% HCl at 37° C. for 24 hours); HEK293 cells expressing NET
OBSERVATION_TYPE: IC50

compound CC(Cc1ccc2c(c1)OCS2)N(C)C(=O)OC(C)(C)C (stereo not shown) , IC50 observed: 9.2 µM

###

Target: human NET (Homo sapiens)
Construct: expressed in transfected cells
Assay: Uptake inhibition assay, NET
Type: cell-based
Settings: HEK293 cells stably expressing NET, [3H]MPP+
We begin with a simple list: items and their reported pIC50.
By convention, pIC50 is the negative base-10 log of a molar concentration.

compound CC(N)Cc1ccc2c(c1)OCS2 (centres unmarked) [RT054, Benzoxathiol-6-yl-propan-2-amine, reference compound] , pIC50 observed: 6.10

Now for a further compound.
compound CNC(C)Cc1ccc2c(c1)OCS2 (centres unmarked) , pIC50 observed: 5.74

###

Biological target: human SERT (Homo sapiens, UniProt P31645)
Construct: expressed in transfected cells
Sequence (P31645 whole entry): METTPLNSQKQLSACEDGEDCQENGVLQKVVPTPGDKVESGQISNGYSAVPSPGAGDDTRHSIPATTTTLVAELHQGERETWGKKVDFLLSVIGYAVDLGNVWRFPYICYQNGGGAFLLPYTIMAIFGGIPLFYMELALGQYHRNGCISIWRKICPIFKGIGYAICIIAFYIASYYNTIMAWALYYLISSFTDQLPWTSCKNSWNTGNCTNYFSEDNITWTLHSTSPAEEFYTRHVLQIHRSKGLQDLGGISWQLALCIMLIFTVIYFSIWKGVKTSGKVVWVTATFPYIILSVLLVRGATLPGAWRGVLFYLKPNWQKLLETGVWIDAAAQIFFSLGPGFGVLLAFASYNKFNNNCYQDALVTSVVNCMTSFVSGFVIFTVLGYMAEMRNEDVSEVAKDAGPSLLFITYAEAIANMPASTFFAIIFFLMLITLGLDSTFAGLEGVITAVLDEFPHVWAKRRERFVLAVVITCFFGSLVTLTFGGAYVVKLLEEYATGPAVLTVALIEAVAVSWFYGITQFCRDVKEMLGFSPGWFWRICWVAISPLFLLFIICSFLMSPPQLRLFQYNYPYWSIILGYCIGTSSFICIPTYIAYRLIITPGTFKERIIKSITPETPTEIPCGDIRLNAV
Assay: Uptake inhibition assay, SERT
Type: cell-based
Settings: HCl-treated (0.5% HCl at 37° C. for 24 hours); HEK293 cells expressing SERT
OBSERVATION_TYPE: pIC50
By convention, pIC50 is the negative base-10 log of a molar concentration.

molecule CC(Cc1ccc2c(c1)OCS2)N(C)C(=O)OC(C)(C)C (stereo not shown) , pIC50 observed: 4.74
